Values compiled from patent US20220064276A1.

biological target: T1, human LTBP1-proTGFβ1 complex (human, UniProt Q14766 347-1721; P01137 30-390); assay: SPR Biacore 8K, Fab over captured antigen
T1 construct: Large latent complex: one presenting molecule disulfide-linked to a proTGFβ1 dimer; also called Hu LTBP1-proTGFβ1; huLTBP1 proTGFβ1
T1 sequence (Q14766 347-1721 limits assumed, chain 1 of 2): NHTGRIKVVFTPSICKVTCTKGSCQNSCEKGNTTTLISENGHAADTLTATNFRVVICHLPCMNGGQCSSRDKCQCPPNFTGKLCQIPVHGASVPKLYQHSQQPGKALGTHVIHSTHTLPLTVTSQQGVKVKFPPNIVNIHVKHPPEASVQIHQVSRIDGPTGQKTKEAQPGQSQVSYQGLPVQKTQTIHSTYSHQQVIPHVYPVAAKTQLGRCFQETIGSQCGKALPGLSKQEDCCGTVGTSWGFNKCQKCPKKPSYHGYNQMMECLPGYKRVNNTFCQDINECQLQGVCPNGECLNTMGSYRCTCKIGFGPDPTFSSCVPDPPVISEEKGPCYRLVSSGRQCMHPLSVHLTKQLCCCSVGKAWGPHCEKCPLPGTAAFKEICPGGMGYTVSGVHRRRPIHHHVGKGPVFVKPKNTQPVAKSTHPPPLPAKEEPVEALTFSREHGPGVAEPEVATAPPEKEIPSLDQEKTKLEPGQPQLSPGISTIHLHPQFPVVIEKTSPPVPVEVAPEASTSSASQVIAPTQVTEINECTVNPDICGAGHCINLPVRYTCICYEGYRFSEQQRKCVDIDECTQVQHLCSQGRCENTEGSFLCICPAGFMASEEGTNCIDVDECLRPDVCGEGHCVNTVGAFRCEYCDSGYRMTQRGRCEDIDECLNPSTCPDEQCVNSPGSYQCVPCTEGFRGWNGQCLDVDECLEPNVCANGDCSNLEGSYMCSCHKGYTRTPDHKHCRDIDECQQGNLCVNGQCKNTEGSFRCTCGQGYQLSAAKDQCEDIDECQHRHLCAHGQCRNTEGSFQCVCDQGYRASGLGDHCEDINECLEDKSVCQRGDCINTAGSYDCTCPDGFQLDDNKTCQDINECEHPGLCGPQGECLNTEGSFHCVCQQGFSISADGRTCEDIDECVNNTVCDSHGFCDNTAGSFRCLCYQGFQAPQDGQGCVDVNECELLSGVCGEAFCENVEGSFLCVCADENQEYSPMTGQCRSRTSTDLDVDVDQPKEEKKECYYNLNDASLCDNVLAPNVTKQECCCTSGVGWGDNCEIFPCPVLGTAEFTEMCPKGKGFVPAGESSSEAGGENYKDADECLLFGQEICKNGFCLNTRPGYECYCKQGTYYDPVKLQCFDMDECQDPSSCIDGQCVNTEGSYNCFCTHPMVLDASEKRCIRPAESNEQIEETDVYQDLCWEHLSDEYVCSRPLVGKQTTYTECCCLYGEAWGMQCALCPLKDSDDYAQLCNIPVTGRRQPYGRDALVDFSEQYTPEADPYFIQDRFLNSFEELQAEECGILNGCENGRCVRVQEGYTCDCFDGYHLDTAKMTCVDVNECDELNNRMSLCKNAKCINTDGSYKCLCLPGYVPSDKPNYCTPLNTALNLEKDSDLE
T1 sequence (P01137 30-390 limits assumed, chain 2 of 2): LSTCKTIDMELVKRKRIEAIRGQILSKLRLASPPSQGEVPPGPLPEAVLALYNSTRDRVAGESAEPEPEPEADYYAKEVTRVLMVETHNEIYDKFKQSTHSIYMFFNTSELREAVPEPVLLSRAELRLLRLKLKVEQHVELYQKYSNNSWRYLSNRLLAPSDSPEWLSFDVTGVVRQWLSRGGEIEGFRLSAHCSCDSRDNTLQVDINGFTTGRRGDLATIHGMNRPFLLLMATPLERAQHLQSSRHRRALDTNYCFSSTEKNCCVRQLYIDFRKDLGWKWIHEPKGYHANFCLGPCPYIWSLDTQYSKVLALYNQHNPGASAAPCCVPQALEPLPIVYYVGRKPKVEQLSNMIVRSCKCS
This listing pairs binders with measured kon.
Dear colleague, please return just the value in M⁻¹ s⁻¹, with no unit written.

Here are 2 binders together with their reported answers.
SR-AB61-HuFab (Fab, V domains shown, Human Fab; also called SR-AB61 Fab) VH: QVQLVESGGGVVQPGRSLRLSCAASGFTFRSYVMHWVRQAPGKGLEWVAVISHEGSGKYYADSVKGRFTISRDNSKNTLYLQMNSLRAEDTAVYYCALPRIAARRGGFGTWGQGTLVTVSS VL: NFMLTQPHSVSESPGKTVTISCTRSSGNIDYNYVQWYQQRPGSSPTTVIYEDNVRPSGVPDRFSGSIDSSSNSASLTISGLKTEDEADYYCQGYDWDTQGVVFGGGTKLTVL	1.17e+06
SR-AB54-HuFab (Fab, V domains shown, Human Fab; also called SR-AB54 Fab) VH: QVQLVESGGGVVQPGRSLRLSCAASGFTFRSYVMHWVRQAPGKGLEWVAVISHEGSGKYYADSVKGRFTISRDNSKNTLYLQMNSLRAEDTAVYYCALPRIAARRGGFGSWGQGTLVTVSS VL: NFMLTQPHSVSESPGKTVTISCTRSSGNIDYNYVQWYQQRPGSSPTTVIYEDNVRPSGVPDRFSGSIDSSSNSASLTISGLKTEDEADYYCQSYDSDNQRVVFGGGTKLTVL	1.8e+06

In: Name the recorded kon for SR-AB57-HuFab (Fab, V domains shown, Human Fab; also called SR-AB57 Fab) VH: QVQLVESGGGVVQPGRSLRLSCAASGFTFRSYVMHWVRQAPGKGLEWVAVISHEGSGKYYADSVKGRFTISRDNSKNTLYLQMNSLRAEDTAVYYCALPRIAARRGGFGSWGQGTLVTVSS VL: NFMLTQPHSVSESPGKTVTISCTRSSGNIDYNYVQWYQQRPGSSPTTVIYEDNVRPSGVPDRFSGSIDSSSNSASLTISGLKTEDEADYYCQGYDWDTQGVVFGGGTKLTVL .
Out: 1.35e+06

In: What kon value was documented for this binder, SR-AB52-HuFab (Fab, V domains shown, Human Fab; also called SR-AB52 Fab) VH: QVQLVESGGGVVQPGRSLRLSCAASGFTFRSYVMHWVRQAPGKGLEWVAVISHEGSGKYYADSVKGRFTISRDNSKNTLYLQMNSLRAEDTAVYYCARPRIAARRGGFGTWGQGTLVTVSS VL: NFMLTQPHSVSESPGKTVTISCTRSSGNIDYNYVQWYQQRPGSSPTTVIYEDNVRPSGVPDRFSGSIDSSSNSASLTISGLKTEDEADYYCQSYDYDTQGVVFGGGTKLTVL ?
Out: 2.5e+06

In: Give the measured kon of SR-AB50-HuFab (Fab, V domains shown, Human Fab; also called SR-AB50 Fab) VH: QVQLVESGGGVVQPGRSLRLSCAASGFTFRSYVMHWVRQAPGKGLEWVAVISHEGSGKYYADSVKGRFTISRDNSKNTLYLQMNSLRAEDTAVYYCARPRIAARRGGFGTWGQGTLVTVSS VL: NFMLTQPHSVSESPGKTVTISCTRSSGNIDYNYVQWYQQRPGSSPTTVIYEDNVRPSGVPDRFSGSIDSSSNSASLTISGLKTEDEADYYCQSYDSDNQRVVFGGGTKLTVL .
Out: 3.31e+06
